Where these numbers come from: the supplement of paper PMC10567573

B1: CDC34 (parent)
chain: GGYFKARLKFPIDYPYSPPAFRFL

Variants of: B1
ASSAY_INFO: protein stability index of a GFP-peptide fusion (GPS, HEK-293T) (PSI 1-6); higher = more stable;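 note: lentivirally expressed fusions sorted by FACS into six bins by GFP to DsRed ratio, PSI derived from sequencing read proportions per bin multiplied by bin number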
SETUP_CONDITIONS: c terminus: a fixed tail appended
MEASUREMENT_TYPE: protein stability index

# MUTATION_ANNOTATION, REPORTED
data = [
    ("G2P", 3.31),
    ("I12W", 2.12),
    ("L24G", 2.44),
    ("K5D", 2.63),
    ("P18H", 2.33),
    ("K9L", 3.67),
    ("F23L", 1.54),
    ("F21W", 3.02),
    ("K5E", 2.79),
    ("F4H", 1.96),
    ("L8S", 2.89),
]
